test system: MCF7 breast; assay: NCI-60 one-dose screen, 48 h (100 = growth as untreated, 0 = no growth, -100 = all killed); details: 10 µM
This is part of a sample that, as a whole, favours compounds with a hit. Of some 83,000 tested, about 20% had one in any assay.
Please provide measured growth for the entries that follow.
One number for each entry, in %.

The examples below pair each entry with its known result.
# MOLECULE, growth [%]
records = [
    ("COC(=O)[C@H](NC(=O)C1(C)CCC[C@]2(C)[C@H]3C[C@H]4C(C(C)C)=C[C@]3(CC[C@@H]12)[C@@H]1C(=O)CCC(=O)[C@@H]14)C(C)C (some centres undefined)", 98.2),
    ("O=c1c2cc(F)ccc2sc2c(NCCCNCCO)nc3ccc(Cl)cc3c12", 31),
    ("O=c1oc2ccc(I)cc2c(=O)n1-c1ccc(F)cc1F", 5.86),
]

Shifting focus to the molecule that follows.
### Prompt Give MCF7 breast growth for COc1cc(C(=O)O/N=C(\N)Cc2cccc3ccccc23)cc(OC)c1OC
### Response -85.7
